The values you see were collected from patent US20250034182A1.

- Test name: RSV HEP2-CC50-384-V2 (per Ex. V)
- Type: cell-based
- Conditions: human; HEp-2 cells, 384-well; read-out: RSV HEP2-CC50-384-V2 (nM) (per Ex. V)
Measured metric: CC50 at 3 days

INSERT INTO results (compound, measured_metric, recorded_value) VALUES
  ('CCCCCCCCCCCCC[C@@H](COP(=O)(O)OC[C@@]1(C#N)O[C@@H](c2ccc3c(N)ncnn23)[C@H](O)[C@@H]1O)OCc1cc(F)cc(C#N)c1 [Compound 97]', 'CC50 at 3 days', '> 43900 nM');

====

This listing pairs compounds with measured CC50 at 3 days.
- Test name: HCV Replicon 2A CC50, calcein AM (Example Q)
- Assay type: cell-based
- Conditions: HCV replicon cells (2A), calcein AM fluorescence, read-out: HCV Replicon 2A CC50 (nM) (per Ex. Q)
Measured metric: CC50 at 3 days (nM)

INSERT INTO measurements (chemical_smiles, qualifier_operator, recorded_value) VALUES
  ('CCCCCCCCCCCCCCCCCCOC[C@H](COP(=O)(O)OC[C@@]1(C#N)O[C@@H](c2ccc3c(N)ncnn23)[C@H](O)[C@@H]1O)OCc1ccc(C#N)cc1OC', '>', 44400),
  ('CCCCCCCCCCCCCCCCCCCC[C@H](COP(=O)(O)OC[C@@]1(C#N)O[C@@H](c2ccc3c(N)ncnn23)[C@H](O)[C@@H]1O)Oc1cccc(C#N)c1', '>', 44400),
  ('CCCCCCCCCCCCCCCC[C@@H](COP(=O)(O)OC[C@@]1(C#N)O[C@@H](c2ccc3c(N)ncnn23)[C@H](O)[C@@H]1O)OCc1cc(F)cc(C#N)c1', '=', 30200),
  ('CCCCCCCCCCCCCCCCCC[C@H](COP(=O)(O)OC[C@@]1(C#N)O[C@@H](c2ccc3c(N)ncnn23)[C@H](O)[C@@H]1O)OCc1cc(Cl)cc(C#N)c1', '=', 37900),
  ('CCCCCCCCCCCCCCCC[C@H](COP(=O)(O)OC[C@@]1(C#N)O[C@@H](c2ccc3c(N)ncnn23)[C@H](O)[C@@H]1O)OCc1cc(F)cc(C#N)c1', '=', 33800),
  ('CCCCCCCCCCCCCCCCCCOC[C@H](COP(=O)(O)OC[C@@]1(C#N)O[C@@H](c2ccc3c(N)ncnn23)[C@H](O)[C@@H]1O)OCc1cc(F)cc(C#N)c1', '>', 44400),
  ('CCCCCCCCCCCCCCC[C@H](COP(=O)(O)OC[C@@]1(C#N)O[C@@H](c2ccc3c(N)ncnn23)[C@H](O)[C@@H]1O)OCc1cc(F)cc(C#N)c1', '=', 36900);

====

- Test system: Respiratory syncytial virus recombinant with luciferase (RSV-Luc5) in HEp-2 cells
- Test name: HEp-2 RSV-Luc5 384-well assay (EC50 RSVFLUC Hep2-384, Example R)
- Assay type: cell-based
- Conditions: human respiratory syncytial virus, HEp-2, 72 h, read-out: RSV Hep-2 FLuc EC50 (nM) (per Ex. R)
Listed here: items and their measured EC50.
Measured metric: EC50 (nM)

INSERT INTO measurements (chemical_smiles, measured_metric, uom, recorded_value) VALUES
  ('CCCCCCCCCCCCCCCCCCC[C@H](COP(=O)(O)OC[C@@]1(C#N)O[C@@H](c2ccc3c(N)ncnn23)[C@H](O)[C@@H]1O)OCc1cc(F)cc(C#N)c1', 'EC50', 'nM', 291),
  ('CCCCCCCCCCCCCCCCCCOC[C@H](COP(=O)(O)OC[C@@]1(C#N)O[C@@H](c2ccc3c(N)ncnn23)[C@H](O)[C@@H]1O)OCc1cc(F)cc(C#N)c1', 'EC50', 'nM', 100),
  ('CCCCCCCCCCCCCCCCCCOC[C@H](COP(=O)(O)OC[C@@]1(C#N)O[C@@H](c2ccc3c(N)ncnn23)[C@H](O)[C@@H]1O)Oc1cccc(C#N)n1', 'EC50', 'nM', 136),
  ('CCCCCCCCCCCCCCCCCCCC[C@H](COP(=O)(O)OC[C@@]1(C#N)O[C@@H](c2ccc3c(N)ncnn23)[C@H](O)[C@@H]1O)Oc1cccc(C#N)c1', 'EC50', 'nM', 421),
  ('CCCCCCCCCCCCCCCCC[C@H](COP(=O)(O)OC[C@@]1(C#N)O[C@@H](c2ccc3c(N)ncnn23)[C@H](O)[C@@H]1O)OCc1cc(F)cc(C#N)c1', 'EC50', 'nM', 155),
  ('CCCCCCCCCCCCCCCCCCOC[C@H](COP(=O)(O)OC[C@@]1(C#N)O[C@@H](c2ccc3c(N)ncnn23)[C@H](O)[C@@H]1O)OCc1ccc(C#N)cc1OC', 'EC50', 'nM', 195),
  ('CCCCCCCCCCCCCCOC[C@H](COP(=O)(O)OC[C@@]1(C#N)O[C@@H](c2ccc3c(N)ncnn23)[C@H](O)[C@@H]1O)Oc1ccc(C#N)nc1', 'EC50', 'nM', 222),
  ('CCCCCCCCCCCCCCCCCCOC[C@H](COP(=O)(O)OC[C@@]1(C#N)O[C@@H](c2ccc3c(N)ncnn23)[C@H](O)[C@@H]1O)OCc1ccc(C#N)nc1', 'EC50', 'nM', 48),
  ('CCCCCCCCCCCCCCCCCCOC[C@H](COP(=O)(O)OC[C@@]1(C#N)O[C@@H](c2ccc3c(N)ncnn23)[C@H](O)[C@@H]1O)OCc1ccc(OC)c(C#N)c1', 'EC50', 'nM', 53),
  ('CCCCCCCCCCCCCCCCCCOC[C@H](COP(=O)(O)OC[C@@]1(C#N)O[C@@H](c2ccc3c(N)ncnn23)[C@H](O)[C@@H]1O)Oc1cccc(C#N)c1', 'EC50', 'nM', 12),
  ('CCCCCCCCCCCCCCCCCC[C@@H](COP(=O)(O)OC[C@@]1(C#N)O[C@@H](c2ccc3c(N)ncnn23)[C@H](O)[C@@H]1O)OCc1cc(F)cc(C#N)c1', 'EC50', 'nM', 304);
